# assay name: Relative bioavailability and food-effect crossover study, cohort 1 (bilayer tablet F2 vs F1 co-administered with F3)
# run conditions: human, in vivo, AUClast, plasma, mean; F2 Compound of Formula I/F/TAF (75/200/25 mg), high-fat meal, Test, N = 28
measured metric: AUC(0-t) (ng·h/mL)
Please reply with the bare figure in ng·h/mL and do not write the unit itself.

Looking for the measured AUC(0-t) of CC(C)OC(=O)[C@H](C)N[P@](=O)(CO[C@H](C)Cn1cnc2c(N)ncnc21)Oc1ccccc1 [Tenofovir alafenamide] , can you help?
315

* * *

# assay name: Relative bioavailability and food-effect crossover study, cohort 1 (bilayer tablet F2 vs F1 co-administered with F3)
# run conditions: human, in vivo, AUClast, plasma, mean; F1 Compound of Formula I (75 mg) + F3 F/TAF (200/25 mg) co-administered, fasted, Reference, N = 28, cohort 1
# Protocol: Studies were carried out to assess the pharmacokinetic profiles of the formulations F1, F2, and F3 of Examples 1, 2, and 2A. […] The bioavailability was evaluated in healthy subjects. The following plasma pharmacokinetic parameters were calculated: Cmax, AUClast, and AUCinf. […]
measured metric: AUC(0-t) (ng·h/mL)
Please reply with the bare figure in ng·h/mL and do not write the unit itself.

Looking for the measured AUC(0-t) of CC(C)OC(=O)[C@H](C)N[P@](=O)(CO[C@H](C)Cn1cnc2c(N)ncnc21)Oc1ccccc1 [Tenofovir alafenamide] , can you help?
224

This collection of values is drawn from patent US11744802B2.
